ASSAYED_TARGET: BRAF V600E (Homo sapiens, UniProt P15056, V600E)
Sequence (P15056 whole entry V600E): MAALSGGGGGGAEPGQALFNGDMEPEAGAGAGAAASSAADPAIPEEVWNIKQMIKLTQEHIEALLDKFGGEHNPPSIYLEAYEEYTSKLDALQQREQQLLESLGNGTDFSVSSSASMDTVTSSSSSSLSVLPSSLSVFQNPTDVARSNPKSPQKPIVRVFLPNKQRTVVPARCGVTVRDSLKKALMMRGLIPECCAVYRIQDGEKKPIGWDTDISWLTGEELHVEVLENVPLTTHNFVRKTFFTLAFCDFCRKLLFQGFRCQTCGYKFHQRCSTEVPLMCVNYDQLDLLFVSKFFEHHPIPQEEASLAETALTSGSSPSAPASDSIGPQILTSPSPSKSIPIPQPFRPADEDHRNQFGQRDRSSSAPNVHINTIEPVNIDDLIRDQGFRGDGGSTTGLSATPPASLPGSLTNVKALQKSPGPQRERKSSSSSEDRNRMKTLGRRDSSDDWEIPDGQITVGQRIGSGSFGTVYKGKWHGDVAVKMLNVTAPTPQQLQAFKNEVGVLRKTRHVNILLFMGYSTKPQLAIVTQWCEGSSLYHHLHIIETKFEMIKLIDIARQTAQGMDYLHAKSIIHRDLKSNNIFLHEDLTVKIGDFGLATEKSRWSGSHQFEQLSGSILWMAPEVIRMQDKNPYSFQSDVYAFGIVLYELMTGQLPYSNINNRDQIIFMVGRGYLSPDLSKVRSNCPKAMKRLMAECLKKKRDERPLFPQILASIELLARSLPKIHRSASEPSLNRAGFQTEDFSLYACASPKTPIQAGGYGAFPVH
ASSAY_DETAILS: HiBiT cellular BRAF^V600E degradation assay
Type: cell-based
CONDITION_SUMMARY: A375.10 cells, 24 h; residual protein remaining in the cell; read-out: HiBit 24 h Emax
Mark met for Emax under 20%, not met if at or over.

// known answers, use as guide
| MOLECULE | CAT |
| --- | --- |
| Cn1nc(N2CCC(=O)NC2=O)c2cc(F)c(N3CCC(O)(CC(=O)N4CCC5(CC4)C[C@@H](n4cnc6ccc(Oc7c(F)ccc(NS(=O)(=O)C8CCC8)c7C#N)cc6c4=O)CO5)CC3)cc21 | not met |
| CCN(C)S(=O)(=O)Nc1ccc(F)c(Oc2ccc3ncn(CCCC4CCN(CC(=O)N5CCC(c6ccc(NC7CCC(=O)NC7=O)cc6)CC5)CC4)c(=O)c3c2)c1C#N (centres unmarked) | met |

Problem: For the molecule CCN(C)S(=O)(=O)Nc1cccc(Oc2ccc3ncn(C4CC5(CCN(C(=O)CN6CCC(c7ccc(NC8CCC(=O)NC8=O)cc7F)CC6)CC5)C4)c(=O)c3c2)c1C#N (centres unmarked) , is Emax under 20%?
met

Problem: For the molecule CCN(C)S(=O)(=O)Nc1ccc(F)c(Oc2ccc3ncn(CCC4CCN(C(=O)CN5CCC(c6ccc(NC7CCC(=O)NC7=O)cc6)CC5)CC4)c(=O)c3c2)c1C#N (centres unmarked) , is Emax under 20%?
not met

Problem: For the molecule CCN(C)S(=O)(=O)Nc1ccc(F)c(Oc2ccc3ncn(CCC4CCN(C(=O)CN5CCC(c6ccc(NC7CCC(=O)NC7=O)cc6F)CC5)CC4)c(=O)c3c2)c1C#N (centres unmarked) , is Emax under 20%?
met
